Known melting point of a selection of compounds

>  <compound>
CCCC(=O)Cc1ccc(C(=O)Nc2ccc3cc(CN4CCN(C)CC4)cnc3c2C)cc1

>  <melting point, °C>
177

$$$$
>  <compound>
N#Cc1ccc(C2NC(=O)NC2=O)c(SCCc2ccccc2)c1 (centres undefined)

>  <melting point, °C>
198

$$$$
>  <compound>
CCOc1nc2nc(C(OC(C)=O)C3(Br)C(=O)N4C(C(=O)OCc5ccc([N+](=O)[O-])cc5)=CSC43)cn2c2c1CCC2 (centres undefined)

>  <melting point, °C>
119

$$$$
>  <compound>
COc1cc2c(cc1OC)CN(CCCSc1ccc(NC(=O)c3cccc4c(=O)c5cccc(OC)c5[nH]c34)cc1)CC2

>  <melting point, °C>
199

$$$$
